settings: in methanol, 293.15 K
Quantity measured: solubility (mole fraction)
Respond using a number only.

INPUT: Dear colleague, please send me the reported solubility (mole fraction) for "Nc1ccnc(=O)[nH]1" when you can.
OUTPUT: 0.000808

###

details: in isobutanol, 288.15 K
Quantity measured: solubility (mole fraction)

INPUT: For the compound "Nc1ccnc(=O)[nH]1" , give its reported solubility (mole fraction).
OUTPUT: 0.000144

###

conditions: in n-hexanol, 328.15 K
Quantity measured: solubility (mole fraction)
Give your answer as a number; write no unit.

INPUT: Indicate its recorded solubility (mole fraction); the compound in question is "Nc1ccnc(=O)[nH]1"
OUTPUT: 0.000378
